Quick reference: apparent KD of K4 kissing-loop reporter of the listed items.
System: K4 kissing-loop RNA reporter
Experimental Details: apparent KD of K4 kissing-loop reporter; higher = weaker reporter binding
Setup Conditions: Eterna round: R107; input ligand: none

Residue Sequence: GGAUAGGAAAGAGGAUAUGGGCUAGGCAAGAAUAACUUGUCUAGCAAAUCCAUGAGGAGUGAUGUUCCAGAAGGCUUUCCUAUCG [FmnBX 1 A9+U77]
Test Target: K4 kissing-loop RNA reporter
apparent KD of K4 kissing-loop reporter: 160 nM
--
Residue Sequence: CUCGUGGGUUUGAGAGGGCUUGUGGGAAGUGAGGAUAUUUAGGGAGAAAGAAGGCACUAUAGAAUAUAGUGAUGUUAUAUAUGGG [SSFMNA.Q]
Test Target: K4 kissing-loop RNA reporter
apparent KD of K4 kissing-loop reporter: 264 nM
--
Residue Sequence: AAUUUGGGUUCGGCCGCCACUCCAGUGAUGUUGGAUGGCGAAAUAAAGGCUAGACCAGGUUGCCGGAGGACCGGGAAUCCUGUAC [Qumabi]
Test Target: K4 kissing-loop RNA reporter
apparent KD of K4 kissing-loop reporter: 164 nM
--
Residue Sequence: UGAACCGCCCAGUGAUGUUGGGCCAUAGAUACCAGCCUCUCCGACGGCCCUUGGCAGCUAGGGCCCGGCAGGUAGGAGACUCUGC [Orarzasove]
Test Target: K4 kissing-loop RNA reporter
apparent KD of K4 kissing-loop reporter: 272 nM
--
Residue Sequence: AUAGGAGUGAUGUUCCUUAGUCUCUCCGAUACCAGUAUGGAAACAUACCCUUGGCAGCGGGAGACCGCAGAUUAGGAAACUAGUC [Theophylline A K4 5]
Test Target: K4 kissing-loop RNA reporter
apparent KD of K4 kissing-loop reporter: 185 nM
--
Residue Sequence: GGGAUGAUGUCGGCCGCCACUGACUGUGUCCAGUGAUGUUGGGAGUGUACGGAAGUUCCAUAUAUCAGGACCGGGACCUCGCUCC [theeternabot_sameState_KL_Trp_B_44]
Test Target: K4 kissing-loop RNA reporter
apparent KD of K4 kissing-loop reporter: 938 nM
--
Residue Sequence: UCCAGCAGUACUGAUACCAGACUGCAUGUAGUGAUGUUGCAUAAGGGCAUAGAUGUCUCAGUCCCUUGGCAGCGGUACUGUUGCA [#09 K4 Theophylline B Same State]
Test Target: K4 kissing-loop RNA reporter
apparent KD of K4 kissing-loop reporter: 325 nM
--
Residue Sequence: UGAUUGAACUGAAGGAGCGGCAAGAGAGAAGGAAAUAUAGUGAUGUUAUAUAAGAGAGAGAGCCAGGUAGGUCGCAGAGGGAGGA [ExArgB.D]
Test Target: K4 kissing-loop RNA reporter
apparent KD of K4 kissing-loop reporter: 159 nM
--
Residue Sequence: AAUAAAAUCACGGCCGCCACUGAUUAUUUUAUUAGGAGUGAUGUUCCUAUGACAGUAUGCCUUAACAGGACCGGGUGAAUAUUUA [#19 K4 Tryptophan B Exclusion]
Test Target: K4 kissing-loop RNA reporter
apparent KD of K4 kissing-loop reporter: 144 nM
--
Residue Sequence: UGUGGAGAAUAUGAUACCAGCAGAGAGAGAGAGGAAGUAUAGUGAUGUUAUAUGAGAGAAUGCCCUUGGCAGCAUAAGAAGAAGG [SSTheophylB.C]
Test Target: K4 kissing-loop RNA reporter
apparent KD of K4 kissing-loop reporter: 140 nM
--
Residue Sequence: UCCUAGACUUAGCUAGGUAUAUAAUACGAUACCAGUCUAGAGAUAGACCCUUGGCAGCGUAGGCAGUGAUGUUGCCACUAGCUGA [Theo B SS t7a]
Test Target: K4 kissing-loop RNA reporter
apparent KD of K4 kissing-loop reporter: 103 nM
--
Residue Sequence: CUUAAGGAGUGUCGUGCCGGACACUGGGAAGGAGCGCAAUUCUUUGCAGGUAGGUCGCCCAGUGAUGUUGGGUCUCGCUGUCGAA [KL-XArg-A20]
Test Target: K4 kissing-loop RNA reporter
apparent KD of K4 kissing-loop reporter: 204 nM
--
Residue Sequence: AGUGAUGUUGUGUUAUGCUAGGGAAGUGAUCGAGGACCGGUACGGCCGCCACUCGAGUGAUGAGUGAGUGAUGUUUGUUUAGGGA [sdsmullin]
Test Target: K4 kissing-loop RNA reporter
apparent KD of K4 kissing-loop reporter: 961 nM
--
Residue Sequence: GCAUCCUAGUCGGCCGCCACUAACAUGAGUGAUGUUCAUGUACGUCAGUGAUGUUGACGUAGUUAUAGGACCGGGACUAGGAUGC [KL-SSTryp-B7 Brourdwalk3]
Test Target: K4 kissing-loop RNA reporter
apparent KD of K4 kissing-loop reporter: 137 nM
--
Residue Sequence: AGACCUCAGUGAUGUUGAGGUAACACUGAUACCAGCGACUUAAUUCGCCCUUGGCAGCAGUCCACCGAGGUAUCUGAUUAGGUCA [#24 K4 Theophylline A Exclusion]
Test Target: K4 kissing-loop RNA reporter
apparent KD of K4 kissing-loop reporter: 179 nM
--
Residue Sequence: AUGAGGAGCAGUGAUCCUACUCCAUGGGAAGGAGCGUAGGAUACUACAGGUAGGUCGCCCAGUGAUGUUGGGCGCGUGCUCUUGG [Isatquesra]
Test Target: K4 kissing-loop RNA reporter
apparent KD of K4 kissing-loop reporter: 135 nM
--
Residue Sequence: UGACUGGACUGAAGGAGCGUUGAAGGAGCGUAAGUAGUGAUGUUGCUUACAGGUAGGUCGCAGCAGGUAGGUCGCAGUCUAGUCU
Test Target: K4 kissing-loop RNA reporter
apparent KD of K4 kissing-loop reporter: 63 nM
--
Residue Sequence: AAAAUUAAGGCCGAAUUAACUUCUUGCAUACGAGGACCGGUACGGCCGCCACUCGAGUCAAGUGAUGUUUGACAAUCUAUUAUUA [JR_ExcTryptoA_Sub010]
Test Target: K4 kissing-loop RNA reporter
apparent KD of K4 kissing-loop reporter: 110 nM
--
Residue Sequence: AAUGAUGAUUGACACAUUUACUAAAAGGAAGGAGCGGCGAUGUGGCCAGGUAGGUCGCCUUUUAGCAGUGAUGUUGCUAUAUGUU [JR_Nu_ExcArginiA_Sub026]
Test Target: K4 kissing-loop RNA reporter
apparent KD of K4 kissing-loop reporter: 111 nM
--
Residue Sequence: UUGUUUGGUUGAGAGGUUGGGCGAGAUGAUACCAGUAGAGAAGAGUACCCUUGGCAGCAUAGGAGAGAUAUAGUGAUGUUGUAUA [SSTheophA.R]
Test Target: K4 kissing-loop RNA reporter
apparent KD of K4 kissing-loop reporter: 420 nM
--
Residue Sequence: GCGUCACGUCGGGAUACCAGAGAAAUGGCAUUAGCCAAUGACGAGUGAUGUUCGUAGGCGCUCCCUUGGCAGCCCACCGGGAGGA [theeternabot_sameState_KL_Theo_B_21]
Test Target: K4 kissing-loop RNA reporter
apparent KD of K4 kissing-loop reporter: 311 nM
--
Residue Sequence: AGUGUUGUUUUUUUUAAGAGUGAUGUUUUUCGAGGACCGGUACGGCCGCCACUCGAGUGAUGAGUGAGGUGUGGUGAUGAUUAGU [#10 K4 Tryptophan A Exclusion]
Test Target: K4 kissing-loop RNA reporter
apparent KD of K4 kissing-loop reporter: 1050 nM
--
Residue Sequence: AUUCGUUUAUGUGAUACCAGACUUUGCAGUGAUGUUGCAUUUAUUUUUGAAUUUUAGUUUGUCCCUUGGCAGCACUAUUUAUUUA [JR_SSTheophyB_Sub005]
Test Target: K4 kissing-loop RNA reporter;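 note: bound reporter read as fluorescence of individual clusters on recovered sequencing chips by microscopy, with normalized cluster intensities fitted with a binding model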
apparent KD of K4 kissing-loop reporter: 50.5 nM
